- System: OVCAR-8
Metric: GI50 (nM)

# Molecule, Target Or Test System, Units Text, Assay Value
records = [
    ("COc1ccc(Oc2ccccc2NC(=O)CNC(=O)c2cccc3ccccc23)cc1 [PCNA6]", "OVCAR-8", "nM", 1150),
    ("O=C(CNC(=O)c1cccc2ccccc12)Nc1ccccc1Oc1ccccc1 [AOH1160]", "OVCAR-8", "nM", 316),
    ("O=C(CNC(=O)c1cccc2ccccc12)Nc1ccccc1Oc1cccc(O)c1 [PCNA2]", "OVCAR-8", "nM", 11500),
    ("O=C(CNC(=O)c1cccc2ccccc12)Nc1ccccc1Oc1ccc(O)cc1 [PCNA1]", "OVCAR-8", "nM", 1320),
    ("COc1cccc(Oc2ccccc2NC(=O)CNC(=O)c2cccc3ccccc23)c1 [PCNA7/ AOH1996]", "OVCAR-8", "nM", 692),
]

---

- Test system: SF-539
Response field label takes yes when GI50 is strictly below 700 nM and no in all other cases.

# Smiles String, Answer Label
rows = [
    ("COc1cccc(Oc2ccccc2NC(=O)CNC(=O)c2cccc3ccccc23)c1", "yes"),
    ("COc1ccc(Oc2ccccc2NC(=O)CNC(=O)c2cccc3ccccc23)cc1", "yes"),
    ("O=C(CNC(=O)c1cccc2ccccc12)Nc1ccccc1Oc1ccccc1", "yes"),
    ("O=C(CNC(=O)c1cccc2ccccc12)Nc1ccccc1Oc1cccc(O)c1", "no"),
]

---

# log10(GI50) listing for each entry below
- Test system: HCT-116
Metric: log10(GI50) (log10 of the value in nM)

# Smiles String, log10(GI50)
rows = [
    ("COc1cccc(Oc2ccccc2NC(=O)CNC(=O)c2cccc3ccccc23)c1", 1.98),
    ("O=C(CNC(=O)c1cccc2ccccc12)Nc1ccccc1Oc1ccc(O)cc1", 2.99),
    ("O=C(CNC(=O)c1cccc2ccccc12)Nc1ccccc1Oc1ccccc1", 2.51),
    ("COc1ccc(Oc2ccccc2NC(=O)CNC(=O)c2cccc3ccccc23)cc1", 2.79),
    ("O=C(CNC(=O)c1cccc2ccccc12)Nc1ccccc1Oc1cccc(O)c1", 3.14),
]

---

- Tested on: NCI-H322M
- Assay Comment: AOH1160 IC50 in additional cancer cell lines (Table 4)
- Type: cell-based
- Conditions: Homo sapiens, Non-Small Cell Lung
pIC50: −log10 of the molar value.
Metric: pIC50

# Smiles String, Assay Value
rows = [
    ("O=C(CNC(=O)c1cccc2ccccc12)Nc1ccccc1Oc1ccccc1", 6.80),
]

---

- Assay Comment: Pharmacokinetics (PK) of AOH1160 in animals
- Type: in vivo, Rat
- Conditions: rat, in vivo, po, 20 mg/kg, Rat PO 20 mg/kg, BID dosing

# Compound, Tmax
records = [
    ("O=C(CNC(=O)c1cccc2ccccc12)Nc1ccccc1Oc1ccccc1 [AOH1160]", "6 h"),
]

---

- System: NCI-H23
- Assay Comment: AOH1160 IC50 in additional cancer cell lines (Table 4)
- Type: cell-based
- Conditions: Homo sapiens; NCI-H23, Non-Small Cell Lung
pIC50: −log10 of the molar value.

# Smiles String, pIC50
data = [
    ("O=C(CNC(=O)c1cccc2ccccc12)Nc1ccccc1Oc1ccccc1", 6.71),
]

---

- Test system: A549/ATCC
- Assay Comment: NCI-60 panel test
- Type: cell-based
- Conditions: Homo sapiens, NCI-60 5-dose study
Here the recorded log10 GI50 is given for each entry.
Metric: log10 GI50 (log10 of the value in µM)

# Smiles String, log10 GI50
records = [
    ("O=C(CNC(=O)c1cccc2ccccc12)Nc1ccccc1Oc1ccccc1", -0.34),
    ("COc1ccc(Oc2ccccc2NC(=O)CNC(=O)c2cccc3ccccc23)cc1", 0.10),
    ("O=C(CNC(=O)c1cccc2ccccc12)Nc1ccccc1Oc1ccc(O)cc1", 0.17),
    ("O=C(CNC(=O)c1cccc2ccccc12)Nc1ccccc1Oc1cccc(O)c1", 0.98),
    ("COc1cccc(Oc2ccccc2NC(=O)CNC(=O)c2cccc3ccccc23)c1", -0.50),
]

Each recorded value in this set is attributed to patent US12054447B2.
